test: qHTS for Inhibitors of ATXN expression: Validation (AID 588378); further: nearly all actives have a fitted effect of over 75% in size
testConditions: cell-based ATXN2 expression reporter assay, luminescence; series mostly up to 57.1 µM
Records with an inconclusive call do not appear. Activity calls are given as the source filed them. The call rests on the fitted dose curve; in most records, active means well fitted inhibition curve with a large enough effect; inconclusive means small, poorly fitted or top-dose-only effect; inactive means no such curve, though single readings can be large or run the other way.
Labels: class 1 = active, class 0 = inactive

compound	cat
C[C@@H](NC(=O)/C(C#N)=C/c1ccc(O)c(O)c1)c1ccccc1	class 0
CNC(=O)[C@H]1O[C@@H](n2cnc3c(NCc4cccc(I)c4)ncnc32)[C@H](O)[C@@H]1O	class 0
O=C(Nc1ccccc1)c1cc([N+](=O)[O-])ccc1Cl	class 0
NCCCCCCCCCCN	class 0
CC1OC1P(=O)(O)O (stereo not drawn)	class 0
NC(=O)C1=CN(C2OC(COP(=O)(O)OP(=O)(O)OC[C@H]3O[C@@H](n4cnc5c(N)ncnc54)[C@H](OP(=O)(O)O)[C@@H]3O)C(O)C2O)C=CC1 (stereo partly drawn)	class 0
N=C(N)SCCc1ccc(CCSC(=N)N)cc1	class 0
COc1ccc(NC(=O)/C=C/c2ccc(Cl)cc2)cc1	class 0
Cc1cc2c(cc1Cl)N(C(=O)Nc1ccc(Oc3cccnc3C)nc1)CC2	class 1
CO/S(=N\S(=O)(=O)c1ccc(Cl)cc1)c1ccc([N+](=O)[O-])cc1 (stereo not drawn)	class 0
CSc1ccccc1N1CCN(CCCCCC(=O)NC2CCCc3ccccc32)CC1 (stereo not drawn)	class 1
N#C/C(=C\c1ccc(O)c(O)c1)C(=O)NCc1ccccc1	class 0
O=C(O)c1cc([N+](=O)[O-])ccc1NCCCc1ccccc1	class 0
CCOC(=O)N1CCN(/[N+]([O-])=N/Oc2ccc([N+](=O)[O-])cc2[N+](=O)[O-])CC1	class 0
O=C(c1ccc(Cl)cc1)N1CCN(c2ccc([N+](=O)[O-])c3ncccc23)CC1	class 0
CCCCCCCC/C=C\CCCCCCCC(=O)NCCO	class 0
CCC1C(=O)OCC1Cc1cncn1C (stereo not drawn)	class 0
O=C1O/C(=C/Br)CCC1c1cccc2ccccc12 (stereo not drawn)	class 1
NC(N)=NC(=O)c1nc(Cl)c(N2CCCCCC2)nc1N	class 0
CC(N)C(=O)OC(C)(C)Cc1ccc(Cl)cc1 (stereo not drawn)	class 0
CC(C)Cc1ccc([C@H](C)C(=O)O)cc1	class 0
CCCCN1CCC(n2c(=O)[nH]c3ccccc32)CC1	class 0
O=[N+]([O-])c1ccc2c(c1)S(=O)(=O)C=C2	class 1
NCC1OC(O[C@H]2[C@H](O)[C@@H](OC3C(O)C(N)CC(N)C3OC3OC(CO)C(O)C(O)C3N)O[C@@H]2CO)C(N)C(O)C1O (stereo partly drawn)	class 0
C=CC(C)=C[C@@]1(C)SC(=O)C(C)=C1O	class 0
COC(=O)c1c(C)[nH]c(C)c1C(=O)c1ccccc1Cc1ccccc1	class 0
NC(=S)c1ccc[n+]([C@@H]2O[C@@H](COP(=O)([O-])OP(=O)(O)OC[C@H]3O[C@@H](n4cnc5c(N)ncnc54)[C@H](OP(=O)(O)O)[C@@H]3O)C(O)C2O)c1 (stereo partly drawn)	class 0
COc1cccc(OC)c1OCCNCC1COc2ccccc2O1 (stereo not drawn)	class 0
O=C(Nc1cccc(C(=O)Nc2ccc(S(=O)(=O)O)c3cc(S(=O)(=O)O)cc(S(=O)(=O)O)c23)c1)Nc1cccc(C(=O)Nc2ccc(S(=O)(=O)O)c3cc(S(=O)(=O)O)cc(S(=O)(=O)O)c23)c1	class 0
NCCSSCCN	class 0
CC(C)NC[C@H](O)COc1cccc2[nH]ccc12	class 0
Cn1c(=O)c2[nH]c(-c3ccccc3)nc2n(C)c1=O	class 0
CN(C)CCCO[C@@H]1[C@H]2OC(C)(C)O[C@H]2O[C@@H]1[C@H](O)CO	class 0
Nc1nc(Nc2ccccc2)nc2c1ncn2[C@@H]1O[C@H](CO)[C@@H](O)[C@H]1O	class 0
O=C(O)CCCC[C@@H]1CCSS1	class 0
Cc1cc(NC2CCCCC2)nc(-n2nc(C)cc2C)n1	class 0
NCCCCC(=O)O	class 0
OC[C@H]1O[C@@H](n2cnc3c(NC4CCCC4)ncnc32)[C@H](O)[C@@H]1O	class 0
CC1CN(S(=O)(=O)c2cccc3cnccc23)CCN1 (stereo not drawn)	class 0
Nc1nc(SCc2ccc([N+](=O)[O-])cc2)c2ncn([C@@H]3O[C@H](CO)[C@@H](O)[C@H]3O)c2n1	class 0
O=C(O)c1cc(=O)c2c(Cl)cc(Cl)cc2[nH]1	class 0
N#C/C(=C\c1c[nH]c2ccccc12)C(=O)c1ccc(O)c(O)c1	class 0
NC(CCCP(=O)(O)O)C(=O)O (stereo not drawn)	class 0
